MEASURED_ON: rat kidney TSPO (Rattus norvegicus)
Sequence (P16257 whole entry): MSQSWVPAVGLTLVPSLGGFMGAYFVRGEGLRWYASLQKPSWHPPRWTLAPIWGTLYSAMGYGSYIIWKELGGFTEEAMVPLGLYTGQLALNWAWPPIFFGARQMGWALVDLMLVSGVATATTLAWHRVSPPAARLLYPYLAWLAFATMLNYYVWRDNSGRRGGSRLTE
QUANTITY_MEASURED: Ki (µM)

INSERT INTO results (compound, quantity_measured, unit_label, op, quantitative_result) VALUES
  ('CNC(=O)[C@@]12C[C@@H]1[C@@H](n1cnc3c(NCc4cccc(Cl)c4)nc(C#Cc4ccccc4)nc31)[C@H](O)[C@@H]2O [compound 6]', 'Ki', 'µM', '=', 2.65),
  ('CNc1nc(C#Cc2ccc(Cl)s2)nc2c1ncn2[C@H]1[C@H](O)[C@H](O)[C@]2(C(=O)NCCN)C[C@H]12 [compound 21]', 'Ki', 'µM', '>', 10),
  ('CCOC(=O)[C@@]12C[C@@H]1[C@@H](n1ccc3c(NCCc4ccccc4)nc(C#Cc4ccccc4)nc31)[C@H](O)[C@@H]2O [compound 43]', 'Ki', 'µM', '=', 0.48),
  ('CCOC(=O)[C@@]12C[C@@H]1[C@@H](n1ccc3c(NC)nc(C#Cc4ccccc4)nc31)[C@H](O)[C@@H]2O [compound 40]', 'Ki', 'µM', '>', 10),
  ('CNc1nc(C#Cc2ccc(Br)s2)nc2c1ncn2[C@H]1[C@H](O)[C@H](O)[C@]2(C(=O)OC)C[C@H]12 [compound 23]', 'Ki', 'µM', '=', 8.12),
  ('CNc1nc(C#Cc2ccc(Cl)s2)nc2c1ncn2[C@H]1[C@H](O)[C@H](O)[C@]2(C(=O)OCCC(C)C)C[C@H]12 [compound 33]', 'Ki', 'µM', '>', 10),
  ('CNC(=O)[C@@]12C[C@@H]1[C@@H](n1cnc3c(NC)nc(C#Cc4ccc(Cl)s4)nc31)[C@H](O)[C@@H]2O [compound 14]', 'Ki', 'µM', '=', 0.684),
  ('O[C@@H]1[C@H](O)[C@@H]2C[C@@H]2[C@H]1n1cnc2c(NCC(c3ccccc3)c3ccccc3)nc(C#Cc3ccccc3)nc21 [compound 53]', 'Ki', 'µM', '=', 3.57),
  ('O[C@@H]1[C@H](O)[C@@H]2C[C@@H]2[C@H]1n1ccc2c(NC(C3CC3)C3CC3)nc(C#Cc3ccccc3)nc21 [compound 56]', 'Ki', 'µM', '=', 4.21);

* * *

Target chain: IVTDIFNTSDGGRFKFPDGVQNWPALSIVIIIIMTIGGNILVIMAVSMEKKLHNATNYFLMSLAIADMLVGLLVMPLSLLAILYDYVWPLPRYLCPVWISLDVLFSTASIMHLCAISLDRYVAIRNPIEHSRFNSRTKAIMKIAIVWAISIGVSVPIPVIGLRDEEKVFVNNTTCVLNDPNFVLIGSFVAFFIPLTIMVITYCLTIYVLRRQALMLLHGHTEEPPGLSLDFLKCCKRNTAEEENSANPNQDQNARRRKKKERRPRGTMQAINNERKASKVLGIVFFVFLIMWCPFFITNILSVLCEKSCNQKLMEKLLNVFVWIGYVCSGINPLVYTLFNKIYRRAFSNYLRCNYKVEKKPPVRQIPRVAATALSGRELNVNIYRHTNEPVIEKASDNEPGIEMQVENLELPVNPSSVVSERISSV
QUANTITY_MEASURED: Ki (nM)

INSERT INTO assay_data (compound, unit_label, quantitative_result) VALUES
  ('CNc1nc(C#Cc2ccc(Cl)s2)nc2c1ncn2[C@H]1[C@H](O)[C@H](O)[C@]2(C(=O)NCCN)C[C@H]12 [compound 21]', 'nM', 510),
  ('CCOC(=O)[C@@]12C[C@@H]1[C@@H](n1ccc3c(NC)nc(C#Cc4ccc(Cl)s4)nc31)[C@@H]1OC(C)(C)O[C@@H]12 [compound 77]', 'nM', 16),
  ('CCOC(=O)[C@@]12C[C@@H]1[C@@H](n1cnc3c(NC)nc(C#Cc4ccc(Cl)s4)cc31)[C@H](O)[C@@H]2O [compound 27]', 'nM', 400),
  ('CNc1nc(C#Cc2ccc(Br)s2)nc2c1ncn2[C@H]1[C@H](O)[C@H](O)[C@]2(C(=O)OC)C[C@H]12 [compound 23]', 'nM', 2330);

Entry source: paper PMC6210068
